pKi: −log10 of the molar value.
Note to self: these molecules have pKi reported for Sodium-dependent noradrenaline transporter (Homo sapiens) in various publications.
Measure: pKi

Solved cases below.
CC(C)CN(C(=O)c1cc(Cl)ccc1Cl)[C@H]1CCNC1
6.70
Fc1ccccc1Oc1cccc(F)c1OC1CCNC1 (configuration not stated)
5.99
COCCCN(Cc1ccccc1C(F)(F)F)C1CCNCC1
8.17
Cc1ccc(Oc2ccc(OCCCCF)cc2CN(C)C)c(N)c1
6.39
CC(C)CN(C(=O)c1cccc(Cl)c1F)[C@H]1CCNC1
6.86
CNC(=O)c1ccccc1Sc1ccc(C)cc1[N+](=O)[O-]
6.72

A. COc1ccccc1CN(CC(C)C)C1CCNCC1
B. CC(C)CN(Cc1ccc(C(F)(F)F)cc1F)C1CCNCC1
C. CC(C)CN(Cc1ccc(F)cc1)C1CCNCC1
D. N#CCCN(Cc1ccc(F)cc1C(F)(F)F)C1CCNCC1
E. CCCCN(Cc1ccccc1C(F)(F)F)C1CCNCC1
Prompt: Please put the entries in order of rising pKi. Respond with the label ranking, as requested.
Completion: A, C, D, E, B
(A: 6.84, C: 7.11, D: 7.88, E: 8.29, B: 8.66)

###

Literature compilation of pKi measurements on Sodium-dependent noradrenaline transporter (Homo sapiens, UniProt P23975).
Sequence (P23975 whole entry): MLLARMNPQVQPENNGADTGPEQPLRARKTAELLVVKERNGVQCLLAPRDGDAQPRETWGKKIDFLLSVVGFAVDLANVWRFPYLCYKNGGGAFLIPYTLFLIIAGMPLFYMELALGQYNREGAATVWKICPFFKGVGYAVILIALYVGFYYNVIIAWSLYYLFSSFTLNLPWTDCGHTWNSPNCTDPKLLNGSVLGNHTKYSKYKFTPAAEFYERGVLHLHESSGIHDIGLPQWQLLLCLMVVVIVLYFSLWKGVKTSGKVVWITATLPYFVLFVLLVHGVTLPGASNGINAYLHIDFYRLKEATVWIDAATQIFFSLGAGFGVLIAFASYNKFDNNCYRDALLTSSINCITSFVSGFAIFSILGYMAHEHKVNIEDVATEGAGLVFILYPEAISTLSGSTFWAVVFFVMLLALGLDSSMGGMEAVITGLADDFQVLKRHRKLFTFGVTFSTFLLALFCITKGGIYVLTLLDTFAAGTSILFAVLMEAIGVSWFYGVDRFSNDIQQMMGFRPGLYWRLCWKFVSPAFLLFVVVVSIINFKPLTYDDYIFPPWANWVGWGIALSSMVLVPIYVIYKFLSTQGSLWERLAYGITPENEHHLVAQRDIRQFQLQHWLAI
pKi: −log10 of the molar value.
Measure: pKi

Recorded results for 5 compounds are shown here.
CCc1cc(Cl)ccc1Oc1cc(C)ncc1CNC
7.13
Cc1ccccc1CN(CC(C)C)C1CCNCC1
8.48
Fc1cccc(Cl)c1Oc1cccc(F)c1O[C@@H]1CCNC1
6.96
COc1cc(Cl)ccc1O[C@@H](c1ccc(C)cc1)[C@@H]1CNCCO1
6.74
CN1CCN(CC(c2ccc(OC(F)(F)F)cc2)C2(O)CCCCC2)CC1 (configuration not stated)
6.38

P. CNCCC(Oc1cccc2ccccc12)c1ccc(F)cc1 (configuration not stated)
Q. Fc1cccc(Oc2ccccc2)c1C1CCNCC1
Prompt: When their pKi values are compared, which is larger, P or Q ? API: response body contains the label of the selected item.
Completion: P

###

Collected literature values of Ki measured for Sodium-dependent noradrenaline transporter (Homo sapiens, UniProt P23975).
Measure: Ki (nM)

Reference set (5 entries):
COc1cc(Cl)ccc1O[C@@H](c1cccc(C)c1)[C@@H]1CNCCO1
16
CC(C)CN(Cc1ccccc1OC(F)(F)F)C1CCNCC1
7.1
CC(C)CN(Cc1ccccc1C(F)(F)F)C1CCNCC1
3.2
OC1(C(CN2CCNCC2)c2cccc(Cl)c2)CCCCC1 (centres undefined)
18
Fc1ccccc1OCc1cc(OC[C@@H]2CCCN2)no1
1080

a. Cc1c(Cl)cccc1C(=O)N(CC(C)C)[C@H]1CCNC1
b. Fc1ccccc1Oc1ccccc1OC1CCNC1 (centres undefined)
Prompt: Field: lower recorded Ki (choose a or b ) Identify your pick by its label.
Completion: a
(a: 29 nM, b: 1350 nM)

###

Literature survey of Ki (system: Sodium-dependent noradrenaline transporter (Homo sapiens, UniProt P23975)).
Measure: Ki (nM)

Solved cases below.
CC(C)(C#N)CN(Cc1ccc(F)cc1C(F)(F)F)C1CCNCC1
15.9
COc1ccccc1O[C@@H](c1ccccc1)[C@@H]1CNCCO1
7.93
FC(F)(F)c1ccccc1CN(C1CCCC1)C1CCNCC1
4.1

P. FC(F)(F)c1ccccc1Oc1ncccc1C1CCNCC1
Q. CC(C)CN(C(=O)c1cccc(F)c1C(F)(F)F)[C@H]1CCNC1
R. Cc1ccccc1Oc1ncccc1C1CCNCC1
Prompt: Arrange the 3 entries by Ki so the values rise. Lab note: record answer as labels in requested order.
Completion: Q, P, R

I. Cc1cccc(Cl)c1Oc1cccc(F)c1OC1CNC1
II. COc1ccccc1C[C@@](O)(c1ccccc1)[C@@H]1CNCCO1.Cl.Cl.Cl
Prompt: // compare: I vs II , metric Ki, want the smaller Give the label under which the chosen entry appears.
Completion: II
(II: 3.2 nM, I: 433 nM)

A. c1ccc(CN(c2ccc3[nH]ccc3c2)C2CCNC2)cc1 (stereo not drawn)
B. CCC(CC)N(C(=O)c1cccc(Cl)c1Cl)[C@H]1CCNC1
C. COc1ccccc1Nc1nc(-c2nn(Cc3c(F)cc(OCCCO)cc3F)c3ccccc23)ncc1OC
Prompt: Order each entry by recorded Ki, climbing from the minimum. Form entry: labels listed in requested order.
Completion: A, B, C
(A: 10 nM, B: 37 nM, C: 2740 nM)

1. Cc1ccc(Sc2ccccc2CN)c(N)c1
2. CN(C)CC(c1ccc(Cl)cc1)C1(O)CCCCC1 (stereo not drawn)
Prompt: Lab note: check whether 1 or 2 shows the higher recorded Ki. Pick one and reply with its label.
Completion: 1

1. CN(C)Cc1ccccc1Sc1ccccc1N
2. CNCCC(Oc1cccc2ccccc12)c1ccc(C)cc1 (stereo not drawn)
Prompt: Pick one: 1 or 2 . Which one has the lower reported Ki? State the label of the item chosen.
Completion: 1

I. OC1(C(CN2CCNCC2)c2cccc(C(F)(F)F)c2)CCCCC1 (stereo not drawn)
II. CC(C)(C)CN(C(=O)c1cccc(Cl)c1Cl)[C@H]1CCNC1
Prompt: // which entry reports the smaller Ki, I or II ? When you have decided, please share the label of that item.
Completion: II
(II: 13 nM, I: 58 nM)

P. CC(C)CN(C(=O)c1cc(Cl)cc(Cl)c1)[C@H]1CCNC1
Q. CN1CCN(CC(c2ccc(Cl)cc2)C2(O)CCCCC2)CC1 (stereo not drawn)
R. O[C@](Cc1ccccc1Br)(c1ccccc1)[C@@H]1CNCCO1
Prompt: Order these by Ki, descending, and give the full ranking. Your answer should be the labels, listed in the requested order.
Completion: Q, P, R
(Q: 1220 nM, P: 43 nM, R: 11.9 nM)

###

Literature compilation of Ki measurements on Sodium-dependent noradrenaline transporter (Homo sapiens).

Please review the following examples before continuing.
Fc1ccccc1Oc1cccc(F)c1OC1CCCNC1 (centres undefined)
1950 nM
Cc1ccc(Sc2ccccc2CN(C)C)c(NCc2ccc(F)cc2)c1
> 1200 nM
COc1ccc2ccccc2c1CCC1CCC(CCN)O1 (centres undefined)
> 10000 nM

Let us examine a further case.
Prompt: Query Ki on Sodium-dependent noradrenaline transporter (Homo sapiens) for COc1ccc(C2=NNC(=O)[C@@H]3CC=CC[C@H]23)cc1OC (relative stereo)
Completion: > 100000 nM

###

// compounds with reported Ki on Sodium-dependent noradrenaline transporter (Homo sapiens, UniProt P23975), multi-publication
Measure: Ki (nM)

Reference set, count: 4
Cc1ccc(Oc2ccc(OCCF)cc2CN(C)C)c(N)c1
667
C[C@@]12C[C@@H]1[C@@H](n1cnc3c(NCCc4ccccc4)nc(C#Cc4ccccc4)nc31)[C@H](O)[C@@H]2O
2800
[11CH3]Oc1ccc2c(c1)CCN(CCCc1c[nH]c3ccc(I)cc13)C2
712
CNCc1cnc(C)cc1Oc1ccccc1C(C)C
82

P. COc1ccc2c(c1)CCN([C@H]1CC[C@H](c3c[nH]c4ccc(C#N)cc43)CC1)C2
Q. CN1CCN(C[C@H](c2cccc(Cl)c2)C2(O)CCCCC2)CC1
R. COc1ccccc1C[C@@](O)(c1ccccc1)[C@@H]1CNCCO1
Prompt: Please produce an ascending ranking of these compounds based on Ki. State the ranking by listing the labels in the requested order.
Completion: Q, R, P
(Q: 14 nM, R: 56 nM, P: 96.7 nM)

###

pKi: −log10 of the molar value.
This section presents pKi values reported for UniProtKB P23975 in the literature.

Below: 5 molecules and their reported pKi.
COc1cccc(N2CCN(CCCCn3ncc(=O)n(C)c3=O)CC2)c1
< 5.00
COc1ccc(-c2ccc(C(=O)N3CCN(C(=O)c4ccc5cc[nH]c5c4)[C@@H](C)C3)cc2)cc1
< 5.00
CSc1ncc2c(n1)N(C)CCN(c1cccc(-c3nnc(C)o3)c1)C2=O
< 5.00
Fc1cccc(Oc2ccccc2Cl)c1OC1CCNC1 (configuration not stated)
6.72
COc1ccc(C2=NN(CCCCCNCC[C@H](Oc3cccc4ccccc34)c3cccs3)C(=O)[C@@H]3CC=CC[C@H]23)cc1OC
< 4.00

Prompt: Item COCCNc1ncc2c(n1)N(C)CCN(c1cccc(-c3nnc(C)o3)c1)C2=O with UniProtKB P23975 - pKi?
Completion: < 5.00

Prompt: Can you check c1ccc(OCc2cc(OCCNC3CCC3)no2)cc1 next?
Completion: < 5.15

###

From various publications: Ki for Sodium-dependent noradrenaline transporter (Homo sapiens, UniProt P23975).

Answered cases to consult:
CN(C)Cc1cc(OCCCF)ccc1Sc1ccc(F)cc1N
95 nM
N#Cc1cc(F)cc(C#Cc2csc(F)n2)c1
> 10000 nM
CCNc1ncc2c(n1)N(C)CCN(c1ccccc1OC(CCNC)c1ccccc1)C2=O (centres undefined)
> 10000 nM

Now consider the entry below.
Prompt: // lookup Ki for CN(C)Cc1cc(OCCCF)ccc1Sc1ccc(Br)cc1N
Completion: > 1000 nM
